target: T1, QIEKLVEGKSQIA (not fully specified); experiment: ELISA, immobilized peptide QIEKLVEGKSQIA
T1 construct: alanine at this position
T1 peptide: QIEKLVEGKSQIA
No end group written: not given here.
What OD450 absorbance was measured for each of the following?
Keep it simple and answer with nothing but the number.

input: // fetch OD450 absorbance given entry MM07 (antibody, V domains shown, The VH and VL begin with what look like leader peptides (MDWLW..., MVSSAQ...)) VH: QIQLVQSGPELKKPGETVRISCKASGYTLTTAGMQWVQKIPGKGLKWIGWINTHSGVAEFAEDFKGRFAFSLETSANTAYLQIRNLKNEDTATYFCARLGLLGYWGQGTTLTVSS VL: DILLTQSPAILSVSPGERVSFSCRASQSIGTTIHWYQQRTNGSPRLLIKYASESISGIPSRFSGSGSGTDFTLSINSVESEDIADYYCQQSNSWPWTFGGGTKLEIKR
output: 1.26

input: // fetch OD450 absorbance given entry MM02 (antibody, IgG2b, V domains shown) VH: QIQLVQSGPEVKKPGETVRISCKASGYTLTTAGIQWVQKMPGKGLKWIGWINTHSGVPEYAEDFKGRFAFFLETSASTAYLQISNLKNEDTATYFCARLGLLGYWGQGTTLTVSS VL: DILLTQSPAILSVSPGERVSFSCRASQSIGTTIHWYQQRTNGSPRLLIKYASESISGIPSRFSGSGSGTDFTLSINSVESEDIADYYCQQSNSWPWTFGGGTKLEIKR
output: 1.15

input: // fetch OD450 absorbance given entry MM14 (antibody, IgG2b, V domains shown) VH: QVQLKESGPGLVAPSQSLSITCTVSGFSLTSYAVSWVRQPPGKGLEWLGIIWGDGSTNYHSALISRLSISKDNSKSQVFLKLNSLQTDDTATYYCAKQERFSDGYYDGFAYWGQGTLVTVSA VL: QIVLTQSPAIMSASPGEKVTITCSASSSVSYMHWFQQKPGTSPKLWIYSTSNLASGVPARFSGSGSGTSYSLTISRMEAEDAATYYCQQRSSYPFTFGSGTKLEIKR
output: 1.23

input: // fetch OD450 absorbance given entry MM05 (antibody, IgG1, V domains shown) VH: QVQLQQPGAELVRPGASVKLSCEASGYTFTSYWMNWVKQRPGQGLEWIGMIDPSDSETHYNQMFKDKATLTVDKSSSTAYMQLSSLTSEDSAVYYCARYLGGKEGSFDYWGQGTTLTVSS VL: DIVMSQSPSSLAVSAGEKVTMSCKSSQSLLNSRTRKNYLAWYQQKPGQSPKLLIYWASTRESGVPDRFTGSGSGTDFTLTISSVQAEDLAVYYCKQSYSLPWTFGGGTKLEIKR
output: 1.21

input: // fetch OD450 absorbance given entry MM08 (antibody, IgG1, V domains shown) VH: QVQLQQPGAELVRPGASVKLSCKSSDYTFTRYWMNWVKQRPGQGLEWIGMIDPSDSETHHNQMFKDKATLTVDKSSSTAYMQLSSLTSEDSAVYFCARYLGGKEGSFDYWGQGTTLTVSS VL: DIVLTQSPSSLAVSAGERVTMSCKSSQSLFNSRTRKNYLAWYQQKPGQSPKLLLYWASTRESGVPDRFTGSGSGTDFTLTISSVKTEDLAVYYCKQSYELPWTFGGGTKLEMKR
output: 1.19
